Provide the recorded %Inh for the entries that follow.
System: STK33;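 note: KINOMEscan kinase panel screen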
experimental conditions: concentration: 1 μM, replicates: in singlicate; n = 1
Entry rule: numbers only, all in %.

Request: Report measured %Inh; entry is Cn1cncc1-c1cc2c(Nc3ccc(OCc4ccccc4)cc3)ncnc2cn1
Response: 0

Request: Specify measured %Inh for CCCCc1nn2ncccc2c1-c1ccnc(NC2CC2)n1 .
Response: 0

Request: Report %Inh, nothing else, for this compound: CC(C)c1cc(-c2ccc3c(N)n[nH]c3c2)nc(N)n1
Response: 0

Request: Tell us which %Inh value is on record for CNc1nc(-c2ccc3c(N)n[nH]c3c2)cc(N2C[C@@H](C(=O)NC3CCCCC3)OC[C@H]2C)n1
Response: 13

Request: Report %Inh for COc1ccc(Nc2nccc(N3CCC(NC(=O)c4cc5ccccc5s4)C3)n2)cc1 (stereo not shown)
Response: 0

Request: State its %Inh for this compound: CCn1c(-c2ccccc2)nc2cnccc21
Response: 0

Request: Give the value of %Inh reported for the following: COc1ccc(Nc2nccc(NCCNC(=O)Nc3cc(C)ccc3C)n2)cc1
Response: 0

Request: Please give measured %Inh of the following entry: FC(F)(F)c1ccccc1-c1cc(-c2c[nH]nc2-c2ccccn2)ccn1
Response: 0

Request: Give recorded %Inh. Cc1cccc2c(-c3ccncn3)c(-c3ccc(F)cc3)nn12
Response: 0

Request: Identify the reported %Inh for the following entry. Cc1ccccc1Cn1ccn2c(=O)cc(N3CCOCC3)nc12
Response: 0

Request: Give a short answer stating reported %Inh for COc1ccc(Nc2nccc(N3CCC(NC(=O)C(C)c4ccc(Cl)cc4)CC3)n2)cc1 (stereo not shown) .
Response: 0

Request: Report %Inh for COc1ccc(Nc2nccc(-c3ccc(NC(=O)c4cc5cc(F)ccc5[nH]4)cc3)n2)cc1
Response: 0

Request: Identify measured %Inh associated with Fc1ccc(-c2nc[nH]c2-c2ccncc2)cc1
Response: 1

Request: Give me measured %Inh, please, for this compound: Nc1ncnc2occ(-c3ccc4c(c3)CCN4C(=O)Cc3cc(F)ccc3F)c12
Response: 0

Request: Find the measured %Inh of O=C(Nc1n[nH]c2nc(-c3ccco3)c(Br)cc12)C1CCN(Cc2ccccc2)C1.O=C(O)[C@H](O)[C@@H](O)C(=O)O (stereo not shown) and report it.
Response: 23

Request: Look up and report measured %Inh for this entry: CCc1ccc(-c2ccc3c(c2)-c2n[nH]cc2S(=O)(=O)N3C)cc1
Response: 0
